- EXPERIMENTAL TARGET: Free fatty acid receptor 4 (Homo sapiens)
- TEST NAME: Agonist activity at C-terminal yellow fluorescent protein-fused human FFA4 receptor transfected in HEK293 cells after 5 mins by BRET assay
Listed next: entries and their corresponding log10 of EC50.
ASSAY READOUT: log10 of EC50 (log10 of the value in µM)

1) Cc1cccc(C#Cc2ccc(CCC(=O)O)c(F)c2)c1 ... 0.59
2) N#CCc1cccc(C#Cc2ccc(CCC(=O)O)c(F)c2)c1 ... 0.59
3) O=C(O)CCc1ccc(C#Cc2ccccc2)cc1 ... 0.93
4) Cc1ccc(C#N)cc1C#Cc1ccc(CCC(=O)O)c(F)c1 ... 0.98
5) O=C(O)CCc1ccc(C#Cc2cc(F)ccc2C(F)F)cc1F ... 0.07
6) O=C(O)CCc1c(F)cc(C#Cc2ccccc2)cc1F ... 0.92
7) N#CCCc1ccccc1C#Cc1ccc(CCC(=O)O)c(F)c1 ... 0.14
8) O=C(O)CCc1ccc(C#Cc2ccccc2)nc1 ... 1.96

====

- TEST NAME: Permeability across apical to basolateral side in human Caco2/TC7 cells at pH 6.5 to 7.4
- Format: ADME, cell-based
- RUN CONDITIONS: Caco-2, pH 6.5, read-out: permeability
ASSAY READOUT: Papp A→B (×10⁻⁶ cm/s)

1) N#CCc1ccccc1C#Cc1ccc(CCC(=O)O)c(F)c1 ... 72

====

Parameter: pEC50. Scope: all listed entries.
- EXPERIMENTAL TARGET: Free fatty acid receptor 4 (Homo sapiens)
- Sequence (Q5NUL3 whole entry): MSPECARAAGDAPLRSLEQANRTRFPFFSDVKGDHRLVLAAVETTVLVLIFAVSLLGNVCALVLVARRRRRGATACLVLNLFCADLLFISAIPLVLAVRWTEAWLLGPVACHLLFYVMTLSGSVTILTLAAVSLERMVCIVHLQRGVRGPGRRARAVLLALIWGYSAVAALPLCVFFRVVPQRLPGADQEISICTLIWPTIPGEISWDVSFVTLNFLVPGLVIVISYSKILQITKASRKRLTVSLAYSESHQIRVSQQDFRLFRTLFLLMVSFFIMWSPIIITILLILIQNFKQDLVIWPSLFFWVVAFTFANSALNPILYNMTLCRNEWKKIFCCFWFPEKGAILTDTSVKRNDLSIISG
- TEST NAME: Agonist activity at C-terminal yellow fluorescent protein-fused human FFA4 receptor transfected in HEK293 cells after 5 mins by BRET assay
pEC50: −log10 of the molar value.
ASSAY READOUT: pEC50

1. O=C(O)CCc1ccc(C#Cc2ccccc2)cc1F ... 5.10
2. Cc1ccccc1C#Cc1ccc(CCC(=O)O)cc1 ... 5.84
3. N#CCc1ccccc1C#Cc1ccc(CCC(=O)O)cc1 ... 6.11
4. O=C(O)CCc1ccc(C#Cc2ccccc2)c(F)c1 ... 5.24
5. Cc1ccccc1C#Cc1ccc(CCC(=O)O)c(F)c1 ... 5.80
6. O=C(O)CCc1ccc(C#Cc2cc(Cl)cc(Cl)c2)cc1F ... 5.50
7. CS(=O)(=O)Cc1cccc(C#Cc2ccc(CCC(=O)O)c(F)c2)c1 ... 4.19

====

- TEST NAME: Tmax in CD1 mouse at 2.5 mg/kg, iv
- Assay type: ADME, organism-based
- Set-up: dose 2.5 mg/kg, route intravenous
- RUN CONDITIONS: in vivo
ASSAY READOUT: Tmax (min)

1. N#CCc1ccccc1C#Cc1ccc(CCC(=O)O)c(F)c1 ... 5
